# assayed.system: Muscarinic acetylcholine receptor M2 (Homo sapiens); note: assay procedure not described here
# Sequence (P08172 whole entry): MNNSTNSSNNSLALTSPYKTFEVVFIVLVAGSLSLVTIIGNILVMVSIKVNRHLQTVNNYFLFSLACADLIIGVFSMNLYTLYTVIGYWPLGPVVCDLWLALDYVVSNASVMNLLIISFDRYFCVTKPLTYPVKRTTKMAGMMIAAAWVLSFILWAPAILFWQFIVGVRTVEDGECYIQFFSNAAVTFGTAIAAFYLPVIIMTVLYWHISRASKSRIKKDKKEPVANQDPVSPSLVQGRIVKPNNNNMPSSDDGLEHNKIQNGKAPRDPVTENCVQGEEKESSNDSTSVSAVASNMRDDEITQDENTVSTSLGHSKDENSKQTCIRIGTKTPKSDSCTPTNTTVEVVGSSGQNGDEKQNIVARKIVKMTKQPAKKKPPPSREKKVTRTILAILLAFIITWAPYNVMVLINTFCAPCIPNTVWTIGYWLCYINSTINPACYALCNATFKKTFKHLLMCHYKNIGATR
# Format: functional, cell-based
Measured AC50 values are reported for all entries that follow.
measured.parameter: AC50

compound | measured.parameter | reported.measurement
CCCNC(=O)NS(=O)(=O)c1ccc(Cl)cc1 [CHLORPROPAMIDE] | AC50 | > 10 µM
COC(=O)[C@H]1[C@H]2C[C@@H]3c4[nH]c5cc(OC)ccc5c4CCN3C[C@H]2C[C@@H](OC(=O)c2cc(OC)c(OC)c(OC)c2)[C@@H]1OC | AC50 | > 10 µM
CCOC(=O)C1=C(C)NC(C)=C(C(=O)OCC)C1c1ccccc1/C=C/C(=O)OC(C)(C)C | AC50 | > 30 µM
CCCc1nc2c(C)cc(-c3nc4ccccc4n3C)cc2n1Cc1ccc(-c2ccccc2C(=O)O)cc1 | AC50 | 5.16 µM
O=C(CCCN1CCC(O)(c2ccc(Br)cc2)CC1)c1ccc(F)cc1 | AC50 | > 30 µM
CC[C@H](C)C(=O)O[C@H]1C[C@@H](C)C=C2C=C[C@H](C)[C@H](CC[C@@H]3C[C@@H](O)CC(=O)O3)[C@H]21 | AC50 | > 10 µM
CNCCc1ccc(OC(=O)C(C)C)c(OC(=O)C(C)C)c1 | AC50 | > 30 µM
CCOC(=O)[C@@H](N)Cc1ccc(-c2cc(O[C@H](c3ccc(Cl)cc3-n3ccc(C)n3)C(F)(F)F)nc(N)n2)cc1 | AC50 | > 30 µM

----------
AC50 values recorded for Alpha-1A adrenergic receptor (Homo sapiens, UniProt P35348)

compound | AC50
CCC[C@@H]1C[C@@H](C(=O)N[C@@H]([C@H]2O[C@H](SC)[C@H](O)[C@@H](O)[C@H]2O)[C@@H](C)O)N(C)C1 | > 10 µM
O=C(O)Cc1ccccc1Nc1c(Cl)cccc1Cl | 5 µM
CN(C)CCCN1c2ccccc2CCc2ccccc21 | 0.0804 µM
COc1ccc([C@@H]2CC(=O)c3c(O)cc(O)cc3O2)cc1O | > 30 µM
CCC(=O)O[C@](Cc1ccccc1)(c1ccccc1)[C@H](C)CN(C)C | 8.05 µM
CC(C)N(CCCCOCC(=O)O)c1cnc(-c2ccccc2)c(-c2ccccc2)n1 | > 30 µM
CC(C)NC[C@H](O)COc1ccc(CC(N)=O)cc1 | > 10 µM
O=C1Cc2cc(CCN3CCN(c4nsc5ccccc45)CC3)c(Cl)cc2N1 | 0.0275 µM
CCCNC(=O)NS(=O)(=O)c1ccc(Cl)cc1 [CHLORPROPAMIDE] | 5.7 µM
Cc1ccccc1-n1c(CF)nc2ccc(N)cc2c1=O | > 30 µM
O=C(/C=C/c1cccc(S(=O)(=O)Nc2ccccc2)c1)NO | > 10 µM
Cc1nc(Nc2ncc(C(=O)Nc3c(C)cccc3Cl)s2)cc(N2CCN(CCO)CC2)n1 | > 10 µM
CCCCOc1ccc(C(=O)CCN2CCCCC2)cc1 | 9.66 µM
O=C(O)Cc1ccccc1Oc1ccc(Cl)cc1Cl | > 10 µM
O=C1Nc2ccc(Cl)cc2C(c2ccccc2Cl)=NC1O (stereo not drawn) | > 10 µM
CCOc1nc2cccc(C(=O)O)c2n1Cc1ccc(-c2ccccc2-c2nnn[nH]2)cc1 | > 10 µM
C[N+]1(C)CCC(=C(c2ccccc2)c2ccccc2)CC1 | > 10 µM
CCC1(CCC(C)C)C(=O)NC(=O)NC1=O | > 10 µM
